tested on: MS2 coat protein; test: apparent KD of MS2 coat protein, switch ON state; designed switch direction (-1 OFF switch, 1 ON switch): -1; higher = weaker reporter binding; details: FMN input: 0 or 200 uM; Eterna round: R93 (includes R88 designs)
Classification field: Met = apparent KD of MS2 coat protein at or over 0.03 µM; Not met = apparent KD of MS2 coat protein under 0.03 µM.

SEQ	ANSWER LABEL
AAGAAGUGAGGAUAUUCGGAUAGGAAAACGAAAACCUAUCCGAAGAAGGCACAUGAGGAUCACCCAUGUAAAAA [Mat - Exaclusion 4 - Eli mod - D41]	Met
AAAAAACAUGAGGAUCACCCAUGUAAGGAUAUGCUAGGAAAAAGAAAAAUAAAAACUAGCAGAAGGUACAUGAA [JL wbt mod 11]	Met
AAAACGUGAGGAUAUGCACCAAAAAAGGUAAAACGGGUACGACAUGAGGAUCACCCAUGUAGAAGGCACGAAAA [Frodo Flailing 10 - Jieux - Exclusion 2]	Met
AAGAGUAGAGGAUAUACAUGAGGAUCACCCAUGUAAUCCAGAUAAGGAAGCAUGGCGUGUAGAAGGCUGCAUGA [MOD of Nando (MS2 Riboswitches- Exclusion 3)]	Not met
AGGGAACAUGAGGAUCACCCAUGUGAGGAUAUGCUAUGGAAAUAAAAAAUAAAACAUAGCAGAAGGCAUAAAAA [Mat - Exclusion 1 - Eli mod - D39]	Met
AAAAGGUUAGGAUAUGCGUGGAAAAAGUGUAUCUAAAAAAAACAUGAGGAUCACCCAUGUAGAAGGGACUUAAA [Banishment 5 - Jieux - Exclusion 2]	Met

---

tested on: MS2 coat protein; assay: apparent KD of MS2 coat protein; designed switch direction (-1 OFF switch, 1 ON switch): 1; higher = weaker reporter binding; conditions: input ligand: none

SEQ	apparent KD of MS2 coat protein / nM
AGGCCAUCAGGAGGAUAUGGCACCUUAUUGGUGCCAGAAGGUCUAACAUGAGGAUCACCCAUGUGGGUGUGGUCGAAAGACCAC [Fiskers NG1(ss) - 5] (Eterna round: R96, puzzle: Same State NG 1)	98
UUAAUAAUGUAAGGAUAUACAUGAGGAUUUCUCGUAGAAGGUACAUUACAUGAGGAUCACCCAUGUGGGUGUCAGAAGACGCCA [Mat - Same State NG 1 - JL mod - D13] (Eterna round: R96, puzzle: Same State NG 1)	275
GCGGAGACGUCAGGAUAUCCAUGGAAGACACAUGAGGAUCACCCAUGUGGGAGGGAAACCAGGAGGGAGAAGGGACGGAAACGC [ssng2 v2 d] (Eterna round: R96, puzzle: Same State NG 2)	14.1
GUGGUCAGACAUGAGGAUCACCCAUGUGGAAUAAAUAACGGACAGGAUAUAUAAUAUAGGAUAUAGUAGAAGGGUUGAUUGGUG (Eterna round: R96, puzzle: Same State NG 3)	60.2
GUAGCAUACCGAGGAUAUUCAUUAAACAUGAGGAUCACCCAUGUAAAUUAUAGGCGAAAGCCUUGGGAGAAGGCGGAAUGCUAC [Xeonanis - 20 Mod72] (Eterna round: R96, puzzle: Same State NG 2)	19.1
GCCAACGCAUGAGGAUAUGGCACCUUAUUGGUGCCAGAAGGCGUGUGUAUUCACAUGAGGAUCACCCAUGUAUUAUAGUUGGCA [Fiskers NG1ss - 16] (Eterna round: R96, puzzle: Same State NG 1)	189
GUGGUCAGACAUGAGGAUCACCCAUGUGGAAUAAAUAAGGGAUAGGAUAUGGAAUAUAGGAUAUACCAGAAGGGUUGGUUGGUG (Eterna round: R96, puzzle: Same State NG 3)	95.1
GAGCCAGUCCGAGGAUAUUCAUAUUAAAACAUGAGGAUCACCCAUGUAGGCUCAGAAGAGCCUUGGGAGAAGGCGGACUGGCUC [Xeonanisa] (Eterna round: R96, puzzle: Same State NG 2)	366
GAGUGGUAAAGAGGAUAUGCAUUGUUAUUCACUGUAGAAGGUUUUAACAUGAGGAUCACCCAUGUAGGACUAUUCCUGUGUUUU [Parity 61 - Jieux - Same State NG 1] (Eterna round: R96, puzzle: Same State NG 1)	18.8
UGUACCUUCACAGGAUAUCAUGCGAAAAUUGCGUGAGAAGGGUGAAUACGGUGUUAAUAAAAGCACAUGAGGAUCACCCAUGUA [SameState NG1 #56] (Eterna round: R96, puzzle: Same State NG 1)	471
GCGAGCGUACUUGCAACAUGAGGAUCACCCAUGUUAACUGGACAGGAUAUGGUACCGUUUCGGUACCAGAAGGGUUCCUUCAUG [JL SSNG3 3.60] (Eterna round: R96, puzzle: Same State NG 3)	268
AAUUAAGAUUAAGGAUAUCACGUCGUUUAGACGUGAGAAGGUGAUCAUAACAUGAGGAUCACCCAUGUAUUACAUGAAUUAAUU [SSNG1/3-B3] (Eterna round: R96, puzzle: Same State NG 1)	1190
GGCCUCUGUCAAGGAUAUGCUACCGUUUCGGUAGCAGAAGGUGAUCACAUGCGGUUCGCCCAUGUUUAGGCCAACAGGCCCGCC (Eterna round: R96, puzzle: Same State NG 1)	6.87
GCUCGAUGAGCGUUUUACAUGAGGAUCACCCAUGUUCGUGGGCAGGAUAUUUACGUGCGGUGUGUAGAGAAGGGCCCAUCGAGC [SameState NG3 #69] (Eterna round: R96, puzzle: Same State NG 3)	529
UGUACUUUCAUAGGAUAUCAUGCGAAAAUUGCGUGAGAAGGGUGAAUACUGUCUUUCUAAGAGUACAUGAGGAUCACCCAUGUA [SameState NG1 #63] (Eterna round: R96, puzzle: Same State NG 1)	67.5
ACAUGAGACUCAGGAUAUCAUGUACCUACAUGUGACAUGAGGAUCACCCAUGUGGUAAGUAUGACUGAGAAGGGAGAGAUAUGU [Equivalance 88 - Jieux - Same State NG 2] (Eterna round: R96, puzzle: Same State NG 2)	248
GCUGCAAUAAACGCCUACAUGAGGAUCACCCAUGUAUGUAGGCAGGAUAUCGUAUGCAAAGCAUACGAGAAGGGCCGUAGUAGC [Mat - Same State NG 3 - JL Mod - D36] (Eterna round: R96, puzzle: Same State NG 3)	56.6
AAGAAAGUUUACGAGGAUAUGUUCCGCAUAACAUGAGGAUCACCCAUGUGAACAAGAAAGGCGACGCAGAAGGCGUGAGCAAAGA [Atanansori] (Eterna round: R96, puzzle: Same State 2)	219

Data origin: the supplement of paper PMC9170038
